Ref: PubChem BioAssay (NCI)

Quick reference for TGI among some compounds
# Tested on: CCRF-CEM leukemia
# Assay Summary: NCI tumour cell line growth inhibition, 48 h
Where a SMILES comes first, the peptide text is derived from it.

Please review the entries below; each comes with its answer.
>  <Compound>
CCCCCCCCCCCCCCCC(=O)Nc1ccn([C@@H]2O[C@H](CO)[C@@H](O)[C@@H]2C#N)c(=O)n1

>  <TGI>
> 100 µM

$$$$
>  <Compound>
CCCCCCC1=NOC(C(c2cc[nH]c2)N(C)[C@H](C(=O)OC)C(C)C)C1 (some centres not stated)

>  <TGI>
53.9 µM

$$$$
>  <Compound>
O=C([CH-]C(=O)C(F)(F)F)c1ccccc1.O=C([CH-]C(=O)C(F)(F)F)c1ccccc1.[O]=[U+2]=[O]

>  <TGI>
> 100 µM

$$$$
>  <Compound>
CCOP(=O)(OCC)C(C)(CC)NC1=NC(C(F)(F)F)(C(F)(F)F)NC(=O)N1 (configuration not stated)

>  <TGI>
> 100 µM

$$$$

Prompt: Tell us which TGI value is on record for CCC(C)C1NC(=O)C(CCCCN)NC(=O)C(CCCCN)NC(=O)C(CC(C)C)NC(=O)C(CCCCN)NC(=O)C(C(C)CC)NC(=O)C(C(C)C)NC(=O)C(C(C)CC)NC(=O)C(CCCCN)NC(=O)C(CCCCN)NC(=O)C(C)NC(=O)C(CCCCN)NC(=O)C(CC(C)C)NC1=O (configuration not stated) (cyclo(AKKIVIKLKKILK); configuration not given here)
Completion: 9.3 µM

Prompt: Tell us which TGI value is on record for `N/N=c1\c2ccccc2c2ccc3c4ccccc4/c(=N\N)c3c12`
Completion: > 100 µM

Prompt: Tell us which TGI value is on record for CCCCCCCCCCCCC(CC)CCCCC(=O)O (configuration not stated)
Completion: 67.6 µM

Prompt: Tell us which TGI value is on record for O=C(Nc1cc(Cl)c(Cl)cc1Cl)C(=O)C(C(=O)c1ccccc1)C1OC(=O)c2ccccc21 (configuration not stated)
Completion: > 100 µM
